Values were extracted from patent US20230381328A1.

System: myasthenogenic antibody mAB 198
Experiment: Peptide microarray mimotope screen, binding of mAB 198 to linear and cyclic peptides (fluorescence readout)
Parameters: species or system rat
Conditions: cyclic mimotopes; binding of mAB 198, relative fluorescent signal after normalization against background
Property measured: relative signal [%] (%)

Substance | Property measured | Reported measurement
134 (RYNPADY) [compound 134] | relative signal [%] | 20.2
174 (GSLRWNPADYD) [compound 174] | relative signal [%] | 10.2
166 (RLRQNPADY) [compound 166] | relative signal [%] | 10.6
191 (RLRGNPADYGG) [compound 191] | relative signal [%] | 9.0
173 (LRWNPADYGGF) [compound 173] | relative signal [%] | 10.3
114 (SLRINPADY) [compound 114] | relative signal [%] | 28.0
170 (GSLRFNPADYG) [compound 170] | relative signal [%] | 10.4
117 (SLRVNPADY) [compound 117] | relative signal [%] | 26.5
129 (RGNPADYGG) [compound 129] | relative signal [%] | 22.2
184 (RLLWNPADY) [compound 184] | relative signal [%] | 9.7
130 (SLRLNPADY) [compound 130] | relative signal [%] | 21.8
144 (GGSLRFNPADY) [compound 144] | relative signal [%] | 14.5
104 (WIDVRLRGNPA) [compound 104] | relative signal [%] | 43.2
